Below is a list of entries, each paired with its recorded self-splicing fitness (ln) value.
# method-summary: self-splicing fitness, log relative to wild type (ln ratio); higher = more splicing; Tetrahymena group I intron in knt gene, E. coli kanamycin selection, DiMSum; sequences stand for … in CUCUCU…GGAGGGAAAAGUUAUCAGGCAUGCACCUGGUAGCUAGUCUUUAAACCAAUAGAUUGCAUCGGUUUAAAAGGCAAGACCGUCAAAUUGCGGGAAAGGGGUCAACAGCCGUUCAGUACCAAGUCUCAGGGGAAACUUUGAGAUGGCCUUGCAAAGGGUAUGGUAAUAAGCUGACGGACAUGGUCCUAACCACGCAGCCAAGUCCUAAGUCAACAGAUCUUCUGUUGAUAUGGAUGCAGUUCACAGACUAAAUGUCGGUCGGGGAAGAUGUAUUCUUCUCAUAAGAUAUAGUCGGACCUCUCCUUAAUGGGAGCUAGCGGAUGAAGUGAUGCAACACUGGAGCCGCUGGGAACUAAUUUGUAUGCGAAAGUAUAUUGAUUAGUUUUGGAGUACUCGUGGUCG;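 also: selection with 25 µg/mL kanamycin versus none on LB agar overnight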
# conditions: 30 °C
Lab note: write the figure by itself, no unit.

Field: example entries. Status: answers known.
- polymer-sequence: "AUGUAGCAAUAUUACGAUGG"
  self-splicing fitness (ln): -3.4
- polymer-sequence: "GUACAGCAAUAUUACGACAG"
  self-splicing fitness (ln): -3.31

API: the following record is the query input.
-- ask Report self-splicing fitness (ln) for `ACGCAGCAAUAUUACGAUCG`
-- reply -0.15

====

Below is a list of entries, each paired with its recorded self-splicing fitness (ln) value.
# method-summary: self-splicing fitness, log relative to wild type (ln ratio); higher = more splicing; Tetrahymena group I intron in knt gene, E. coli kanamycin selection, DiMSum; sequences stand for … in CUCUCU…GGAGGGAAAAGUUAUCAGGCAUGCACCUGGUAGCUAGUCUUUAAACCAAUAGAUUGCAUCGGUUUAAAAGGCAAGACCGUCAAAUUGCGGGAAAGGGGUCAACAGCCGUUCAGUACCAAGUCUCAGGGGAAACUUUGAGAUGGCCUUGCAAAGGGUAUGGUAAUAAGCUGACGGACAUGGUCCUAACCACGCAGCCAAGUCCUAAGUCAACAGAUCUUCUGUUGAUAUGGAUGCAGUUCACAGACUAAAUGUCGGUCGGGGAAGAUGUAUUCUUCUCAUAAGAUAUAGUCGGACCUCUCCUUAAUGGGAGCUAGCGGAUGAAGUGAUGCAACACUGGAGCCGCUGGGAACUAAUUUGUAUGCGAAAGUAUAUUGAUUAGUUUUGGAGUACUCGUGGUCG
# conditions: 37 °C
Lab note: write the figure by itself, no unit.

Field: example entries. Status: answers known.
- polymer-sequence: "CUCGAGCAAUAUUACGGACU"
  metric: "self-splicing fitness (ln)"
  reported-result: -1.95
- polymer-sequence: "AUCUAGCAAUAUUACGCGAA"
  metric: "self-splicing fitness (ln)"
  reported-result: -0.373
- polymer-sequence: "UGUCAGCAAUAUUACGGCGC"
  metric: "self-splicing fitness (ln)"
  reported-result: -1.65
- polymer-sequence: "UUGAAGCAAUAUUACGUGGC"
  metric: "self-splicing fitness (ln)"
  reported-result: -1.66

API: the following record is the query input.
-- ask Report self-splicing fitness (ln) for `UAAGAGCAAUAUUACGGCCG`
-- reply -0.743

====

# method-summary: self-splicing fitness, log relative to wild type (ln ratio); higher = more splicing; Tetrahymena group I intron in knt gene, E. coli kanamycin selection, DiMSum; sequences stand for … in CUCUCU…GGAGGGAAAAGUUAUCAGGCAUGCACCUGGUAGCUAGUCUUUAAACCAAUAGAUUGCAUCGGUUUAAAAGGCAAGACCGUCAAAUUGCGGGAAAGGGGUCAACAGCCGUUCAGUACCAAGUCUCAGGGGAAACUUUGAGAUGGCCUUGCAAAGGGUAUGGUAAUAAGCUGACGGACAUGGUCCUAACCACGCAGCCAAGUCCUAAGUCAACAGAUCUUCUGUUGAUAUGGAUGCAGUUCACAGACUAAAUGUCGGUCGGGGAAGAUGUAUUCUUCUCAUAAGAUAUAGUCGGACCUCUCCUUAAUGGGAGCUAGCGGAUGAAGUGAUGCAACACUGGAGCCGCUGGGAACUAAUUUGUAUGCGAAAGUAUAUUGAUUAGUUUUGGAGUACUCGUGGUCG
# conditions: 30 °C
Below is a list of entries, each paired with its recorded self-splicing fitness (ln) value.

- polymer-sequence: "GAACAGCAAUAUUACGCCAG"
  self-splicing fitness (ln): -3.71
- polymer-sequence: "ACCAAGCAAUAUUACGGGCA"
  self-splicing fitness (ln): -0.376
- polymer-sequence: "CAGCAGCAAUAUUACGCUCG"
  self-splicing fitness (ln): -1.95
- polymer-sequence: "UGUCAGCAAUAUUACGCCUC"
  self-splicing fitness (ln): -2.62
- polymer-sequence: "AUGGAGCAAUAUUACGCACU"
  self-splicing fitness (ln): -0.628

-- ask Report self-splicing fitness (ln) for `CAUGAGCAAUAUUACGAGCU`
-- reply -2.78

-- ask Report self-splicing fitness (ln) for `CGUAAGCAAUAUUACGCCAC`
-- reply -2.55

-- ask Report self-splicing fitness (ln) for `AUUGAGCAAUAUUACGAUGU`
-- reply -2.26

====

# method-summary: self-splicing fitness, log relative to wild type (ln ratio); higher = more splicing; Tetrahymena group I intron in knt gene, E. coli kanamycin selection, DiMSum; sequences stand for … in CUCUCU…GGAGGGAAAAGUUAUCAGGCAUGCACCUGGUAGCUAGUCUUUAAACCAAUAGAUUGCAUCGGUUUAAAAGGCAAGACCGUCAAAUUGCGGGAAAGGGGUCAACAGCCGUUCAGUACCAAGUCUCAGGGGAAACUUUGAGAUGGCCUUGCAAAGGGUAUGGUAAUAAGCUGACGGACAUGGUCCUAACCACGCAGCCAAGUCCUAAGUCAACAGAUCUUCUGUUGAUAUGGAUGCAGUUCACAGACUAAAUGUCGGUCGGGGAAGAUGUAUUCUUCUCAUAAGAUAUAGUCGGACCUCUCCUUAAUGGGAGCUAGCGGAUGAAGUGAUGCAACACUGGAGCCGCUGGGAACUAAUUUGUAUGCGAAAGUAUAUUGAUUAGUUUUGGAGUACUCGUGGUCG
# conditions: 30 °C
Below is a list of entries, each paired with its recorded self-splicing fitness (ln) value.
Lab note: write the figure by itself, no unit.

Field: example entries. Status: answers known.
- polymer-sequence: "CGGAAGCAAUAUUACGCGUC"
  self-splicing fitness (ln): -2.62
- polymer-sequence: "UUAAAGCAAUAUUACGGGAU"
  self-splicing fitness (ln): -2.8
- polymer-sequence: "CUGCAGCAAUAUUACGGCCU"
  self-splicing fitness (ln): -3.23
- polymer-sequence: "UGUAAGCAAUAUUACGAGCC"
  self-splicing fitness (ln): -1.57
- polymer-sequence: "UUUCAGCAAUAUUACGGCUU"
  self-splicing fitness (ln): -1.39
- polymer-sequence: "AAGAAGCAAUAUUACGCUCC"
  self-splicing fitness (ln): -2.37
- polymer-sequence: "GUCGAGCAAUAUUACGGGCA"
  self-splicing fitness (ln): -2.65
- polymer-sequence: "GAGGAGCAAUAUUACGAUUA"
  self-splicing fitness (ln): -1.73
- polymer-sequence: "GUGUAGCAAUAUUACGUGCU"
  self-splicing fitness (ln): -1.44
- polymer-sequence: "AUAUAGCAAUAUUACGUCAU"
  self-splicing fitness (ln): -2.43

API: the following record is the query input.
-- ask Report self-splicing fitness (ln) for `AGCCAGCAAUAUUACGCAAU`
-- reply -3.25

====

# method-summary: self-splicing fitness, log relative to wild type (ln ratio); higher = more splicing; Tetrahymena group I intron in knt gene, E. coli kanamycin selection, DiMSum; sequences stand for … in CUCUCU…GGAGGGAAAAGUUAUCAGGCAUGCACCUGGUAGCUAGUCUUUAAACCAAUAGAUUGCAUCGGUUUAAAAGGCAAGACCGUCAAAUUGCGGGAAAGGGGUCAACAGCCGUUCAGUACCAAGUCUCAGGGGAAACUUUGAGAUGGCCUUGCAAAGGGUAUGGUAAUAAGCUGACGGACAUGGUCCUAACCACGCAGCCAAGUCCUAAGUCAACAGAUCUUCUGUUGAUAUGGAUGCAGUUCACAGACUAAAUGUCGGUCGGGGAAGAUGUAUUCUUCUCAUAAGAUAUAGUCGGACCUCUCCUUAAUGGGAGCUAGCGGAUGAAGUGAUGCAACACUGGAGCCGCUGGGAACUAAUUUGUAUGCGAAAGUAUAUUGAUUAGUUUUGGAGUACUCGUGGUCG
# conditions: 30 °C
Lab note: anything with self-splicing fitness (ln) at or over -3 counts as fulfilled; the rest go in not fulfilled.

// below: answered sequences
- polymer-sequence: "ACGCAGCAAUAUUACGACGA"
  assigned-class: "fulfilled"
- polymer-sequence: "CCCUAGCAAUAUUACGGGCG"
  assigned-class: "fulfilled"
- polymer-sequence: "GCUGAGCAAUAUUACGCGGU"
  assigned-class: "not fulfilled"
- polymer-sequence: "ACAUAGCAAUAUUACGGAUG"
  assigned-class: "fulfilled"
- polymer-sequence: "UACCAGCAAUAUUACGUCGU"
  assigned-class: "fulfilled"
- polymer-sequence: "GACGAGCAAUAUUACGCCAA"
  assigned-class: "not fulfilled"

-- ask Quick check: does `GACAAGCAAUAUUACGUCUC` have self-splicing fitness (ln) greater than or equal to -3?
-- reply not fulfilled
